# System: HCT-15
# experimentDescription: Cytotoxicity against multidrug-resistant human HCT15 cells at 1 uM by thymidine incorporation assay
# Format: functional
Square brackets hold non-standard residues; d marks the D form. Peptide text beside a SMILES is read from it. * marks the point of attachment. Bn = c1ccc(C*)cc1
Measured inhibition at 1 µM of individual entries

Some entries whose results are on file:
molecule	inhibition at 1 µM
CC(C)C[C@@H]1NC(=O)[C@H](Cc2ccccc2)NC(=O)[C@@H](CC(C)C)NC(=O)[C@@H](C(C)C)NC(=O)[C@H](CC(C)C)NC1=O (HELM PEPTIDE1{F.L.L.[dV].[dL]}$PEPTIDE1,PEPTIDE1,1:R1-5:R2$$$V2.0)	17%
CC(C)C[C@@H]1NC(=O)[C@@H](CC(C)C)NC(=O)[C@H](Cc2ccccc2)NC(=O)[C@H](CC(C)C)NC(=O)[C@@H](C(C)C)NC1=O (HELM PEPTIDE1{F.[dL].L.[dV].L}$PEPTIDE1,PEPTIDE1,1:R1-5:R2$$$V2.0)	20%
CC(C)[C@@H]1NC(=O)[C@H](CC2CCCCC2)NC(=O)[C@H](CO)NC(=O)[C@H](Cc2ccccc2)NC(=O)[C@@H](Cc2ccccc2)N(C)C1=O (HELM PEPTIDE1{[Cha].V.[CN([C@H](Cc1ccccc1)C(=O)[*:2])[*:1]].F.S}$PEPTIDE1,PEPTIDE1,1:R1-5:R2$$$V2.0)	20%

Let's switch to this molecule now.
Enquiry: What measured inhibition at 1 µM is associated with CC(C)[C@@H]1NC(=O)[C@H](Cc2ccccc2)NC(=O)[C@H](C(C)C)NC(=O)[C@@H](COCc2ccccc2)NC(=O)[C@H](C(C)C)NC1=O (cyclo(FVV[dS](Bn)V)) on HCT-15?
Return: 14%

====

# Test system: HCT-15
# experimentDescription: Cytotoxicity against multidrug-resistant human HCT15 cells at 1 uM by thymidine incorporation assay
# Assay type: functional
Peptide text beside a SMILES is read from it.
Measured inhibition at 1 µM of individual entries
Answer in %, number only, no unit symbol.

Some entries whose results are on file:
compound	valueType	unitName	measuredResult
CC(C)C[C@@H]1NC(=O)[C@H](Cc2ccccc2)NC(=O)[C@@H](Cc2ccccc2)N(C)C(=O)[C@H](C(C)C)NC(=O)[C@H](CCCCN)NC1=O (HELM PEPTIDE1{F.L.K.V.[CN([C@H](Cc1ccccc1)C(=O)[*:2])[*:1]]}$PEPTIDE1,PEPTIDE1,1:R1-5:R2$$$V2.0)	inhibition at 1 µM	%	26
CC(C)C[C@@H]1NC(=O)[C@@H](C(C)C)N(C)C(=O)[C@H](CC(C)C)NC(=O)[C@@H](CC(C)C)NC(=O)[C@H](Cc2ccccc2)NC1=O (HELM PEPTIDE1{F.[dL].L.[CC(C)[C@H](C(=O)[*:2])N(C)[*:1]].L}$PEPTIDE1,PEPTIDE1,1:R1-5:R2$$$V2.0)	inhibition at 1 µM	%	14
CC(C)[C@@H]1NC(=O)[C@H](Cc2ccccc2)NC(=O)[C@H](C(C)C)NC(=O)[C@@H](C(C)C)NC(=O)[C@H](C(C)C)NC1=O (HELM PEPTIDE1{F.V.V.[dV].V}$PEPTIDE1,PEPTIDE1,1:R1-5:R2$$$V2.0)	inhibition at 1 µM	%	1
CC(C)C[C@@H]1NC(=O)[C@H](Cc2ccccc2)NC(=O)[C@H](CC(C)C)NC(=O)[C@H](C(C)C)NC(=O)[C@H](CCCCN)NC1=O (HELM PEPTIDE1{F.L.K.V.L}$PEPTIDE1,PEPTIDE1,1:R1-5:R2$$$V2.0)	inhibition at 1 µM	%	15
CC(C)C[C@@H]1NC(=O)[C@H](Cc2ccccc2)NC(=O)[C@H](CC(C)C)NC(=O)[C@@H](C(C)C)N(C)C(=O)[C@H](CC(C)C)NC1=O (HELM PEPTIDE1{F.L.L.[CC(C)[C@H](C(=O)[*:2])N(C)[*:1]].L}$PEPTIDE1,PEPTIDE1,1:R1-5:R2$$$V2.0)	inhibition at 1 µM	%	21

Enquiry: What measured inhibition at 1 µM is associated with CC(C)C[C@H]1NC(=O)[C@@H](Cc2ccccc2)NC(=O)[C@@H](CC(C)C)NC(=O)[C@@H](C(C)C)N(C)C(=O)[C@@H](CC(C)C)NC1=O (HELM PEPTIDE1{[dF].[dL].[dL].[CC(C)[C@H](C(=O)[*:2])N(C)[*:1]].[dL]}$PEPTIDE1,PEPTIDE1,1:R1-5:R2$$$V2.0) on HCT-15?
Return: 31

Enquiry: Now the same for CC(C)C[C@H]1NC(=O)[C@@H](Cc2ccccc2)NC(=O)[C@@H](CC(C)C)NC(=O)[C@@H](C(C)C)NC(=O)[C@@H](CC(C)C)NC1=O (HELM PEPTIDE1{[dF].[dL].[dL].[dV].[dL]}$PEPTIDE1,PEPTIDE1,1:R1-5:R2$$$V2.0)
Return: 15

Enquiry: Now the same for CC(C)C[C@@H]1NC(=O)[C@H](CC(C)C)NC(=O)[C@@H](Cc2ccccc2)NC(=O)[C@H](CC(C)C)NC(=O)[C@H](C(C)C)NC1=O (HELM PEPTIDE1{L.L.V.L.[dF]}$PEPTIDE1,PEPTIDE1,1:R1-5:R2$$$V2.0)
Return: 26

Enquiry: Now the same for CC(C)C[C@@H]1NC(=O)[C@H](Cc2ccccc2)NC(=O)[C@H](CC(C)C)NC(=O)[C@@H](C(C)C)NC(=O)[C@H](CC(C)C)NC1=O (HELM PEPTIDE1{F.L.L.[dV].L}$PEPTIDE1,PEPTIDE1,1:R1-5:R2$$$V2.0)
Return: 48
